# EXPERIMENT: physchem
# SETTINGS: pH 6.8, aqueous buffer, kinetic from dmso stock, Solubility (pH 6.8)
ATTRIBUTE_MEASURED: solubility at 24 h (µg/mL)
Answer with a number only, understood to be in µg/mL.

Solved cases below.
> print(dat)
                                   compound  attribute.measured  measured.result
1  CO[C@@H]1CN(c2nc(-c3cccc(C)c3OCc3ccc4c(c3C)CCN(C3COC3)C4)cs2)CC[C@@H]1C(=O)O [Compound 174]  solubility at 24 h               83
2  CO[C@H]1CN(c2nc(-c3cc(C)ccc3OCc3ccc4c(c3C)CCN(C3CCOCC3)CC4)cs2)CC[C@H]1C(=O)O [Compound 182]  solubility at 24 h               55
3  COCC(C)N1CCc2c(ccc(COc3ccccc3-c3cccc(N4CC[C@@]5(C(=O)O)C[C@H]5C4)n3)c2C)C1 (stereo partly drawn) [Compound 310]  solubility at 24 h              5.2
4  CO[C@@H]1CN(c2nc(-c3cccc(Cl)c3OCc3ccc4c(c3C)CCN(C3CCOCC3)C4)cs2)CC[C@@H]1C(=O)O [Compound 208]  solubility at 24 h             77.1
5  CO[C@@H]1CN(c2cccc(-c3cccc(C)c3OCc3ccc4c(c3C)CCN([C@@H]3CCOC3)CC4)n2)CC[C@@H]1C(=O)O [Compound 302]  solubility at 24 h             85.5

Exercise: Report solubility at 24 h for COCc1cc(COc2c(C)cccc2-c2cccc(N3CC[C@H](C(=O)O)[C@H](OC)C3)n2)cc2c1CN(C1CCOC1)CC2 (stereo partly drawn) [Compound 284]
Solution: 83.5

----------
Overview of recorded solubility at 24 h for various molecules
# EXPERIMENT: physchem
# SETTINGS: pH 2.2, aqueous buffer, kinetic from dmso stock, Solubility (pH 2.2)
Give the value in µg/mL but do not write µg/mL after it.

> print(dat)
                                   molecule  unit.spec  measured.result
1  CO[C@@H]1CN(c2cccc(-c3cccc(C)c3OCc3ccc4c(c3C)CCN(C3CCOCC3)C4)n2)CC[C@@H]1C(=O)O [Compound 68]      µg/mL              140
2  Cc1ccc(OCc2cc(C)c3c(c2C)CCN(C2COC2)C3)c(-c2csc(N3CC[C@@]4(C(=O)O)C[C@H]4C3)n2)c1 [Compound 126]      µg/mL              130
3  Cc1ccc(OCc2ccc3c(c2)CCN(C2CCOCC2)C3)c(-c2csc(N3CC[C@@]4(C(=O)O)C[C@H]4C3)n2)c1 [Compound 110]      µg/mL              110
4  O=C(O)[C@@]12CCN(c3cccc(-c4ccccc4OCc4ccc5c(c4)CCN(C4CCOCC4)C5)n3)C[C@@H]1C2 [Compound 1]      µg/mL              140
5  Cc1c(COc2ccccc2-c2cccc(N3CC[C@@]4(C(=O)O)C[C@H]4C3)n2)ccc2c1CCN([C@@H]1CCOC1)C2 [Compound 8]      µg/mL              150

Exercise: Assign solubility at 24 h to the following record: COC[C@H]1N(c2cccc(-c3cccc(C)c3OCc3ccc4c(n3)CCN(C3CCOCC3)C4)n2)C[C@@H]2C[C@@]21C(=O)O [Compound 318]
Solution: 151

----------
# EXPERIMENT: physchem
# SETTINGS: pH 2.2, aqueous buffer, kinetic from dmso stock, Solubility (pH 2.2)
solubility at 24 h overview
Please respond with the number in µg/mL and leave the unit unwritten.

Take a look at these entries with their results.
> print(dat)
                                   molecule  attribute.measured  unit.spec  measured.result
1  Cc1ccc(OCc2ccc3c(c2)CCN(C2CCOC2)C3)c(-c2csc(N3CC[C@@]4(C(=O)O)C[C@H]4C3)n2)c1 (stereo partly shown) [Compound 114]  solubility at 24 h      µg/mL              120
2  CO[C@@H]1CN(c2nc(-c3cccc(C)c3OCc3ccc4c(c3F)CCN(C3CCOCC3)CC4)cs2)CC[C@@H]1C(=O)O [Compound 266]  solubility at 24 h      µg/mL              109
3  Cc1ccc(OCc2ccc3c(c2C)CCN(C2COC2)C3)c(-c2csc(N3CC[C@@]4(C(=O)O)C[C@H]4C3)n2)c1 [Compound 116]  solubility at 24 h      µg/mL              140
4  Cc1ccc(OCc2ccc3c(c2C)CCN(C2CCOCC2)CC3)c(-c2cccc(N3C[C@@H]4C[C@]4(C(=O)O)C3)n2)c1 [Compound 41]  solubility at 24 h      µg/mL              100
5  Cc1cc(COc2c(C)cccc2-c2csc(N3CC[C@@]4(C(=O)O)C[C@H]4C3)n2)cc2c1CN(C1CCCOC1)CC2 (stereo partly shown) [Compound 94]  solubility at 24 h      µg/mL              120

Please look at the following molecule next.
Exercise: Specify solubility at 24 h for COc1cc(COc2c(C)cccc2-c2csc(N3CC[C@@H](C(=O)O)[C@@H](OC)C3)n2)cc2c1CN(C1COC1)CC2 [Compound 209] and stop.
Solution: 128

----------
Reported EC50 is given for each of the following molecules.
# SYSTEM_UNDER_TEST: human soluble guanylate cyclase alpha 1 and beta 1 subunits (sGC) (Homo sapiens (Human), UniProt Q02108+Q02153)
# Sequence (Q02108 whole entry partner): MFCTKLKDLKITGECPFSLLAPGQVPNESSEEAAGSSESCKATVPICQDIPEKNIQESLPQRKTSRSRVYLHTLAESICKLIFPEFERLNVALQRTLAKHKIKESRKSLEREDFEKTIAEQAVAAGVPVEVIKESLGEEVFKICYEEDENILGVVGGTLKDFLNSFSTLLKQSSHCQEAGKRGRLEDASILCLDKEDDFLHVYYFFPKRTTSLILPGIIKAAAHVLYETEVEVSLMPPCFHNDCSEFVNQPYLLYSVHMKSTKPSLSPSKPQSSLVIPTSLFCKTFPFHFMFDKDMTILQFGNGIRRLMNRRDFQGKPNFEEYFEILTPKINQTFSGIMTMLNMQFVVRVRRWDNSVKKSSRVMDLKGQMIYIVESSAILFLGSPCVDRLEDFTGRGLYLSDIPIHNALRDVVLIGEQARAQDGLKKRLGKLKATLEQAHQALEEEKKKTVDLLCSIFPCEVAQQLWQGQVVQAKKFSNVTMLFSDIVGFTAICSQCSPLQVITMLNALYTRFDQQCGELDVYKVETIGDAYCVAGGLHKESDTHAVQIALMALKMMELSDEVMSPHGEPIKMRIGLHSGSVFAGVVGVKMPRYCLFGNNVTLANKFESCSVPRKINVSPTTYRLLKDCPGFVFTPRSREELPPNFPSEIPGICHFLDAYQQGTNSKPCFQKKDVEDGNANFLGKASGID
# Sequence (Q02153 whole entry): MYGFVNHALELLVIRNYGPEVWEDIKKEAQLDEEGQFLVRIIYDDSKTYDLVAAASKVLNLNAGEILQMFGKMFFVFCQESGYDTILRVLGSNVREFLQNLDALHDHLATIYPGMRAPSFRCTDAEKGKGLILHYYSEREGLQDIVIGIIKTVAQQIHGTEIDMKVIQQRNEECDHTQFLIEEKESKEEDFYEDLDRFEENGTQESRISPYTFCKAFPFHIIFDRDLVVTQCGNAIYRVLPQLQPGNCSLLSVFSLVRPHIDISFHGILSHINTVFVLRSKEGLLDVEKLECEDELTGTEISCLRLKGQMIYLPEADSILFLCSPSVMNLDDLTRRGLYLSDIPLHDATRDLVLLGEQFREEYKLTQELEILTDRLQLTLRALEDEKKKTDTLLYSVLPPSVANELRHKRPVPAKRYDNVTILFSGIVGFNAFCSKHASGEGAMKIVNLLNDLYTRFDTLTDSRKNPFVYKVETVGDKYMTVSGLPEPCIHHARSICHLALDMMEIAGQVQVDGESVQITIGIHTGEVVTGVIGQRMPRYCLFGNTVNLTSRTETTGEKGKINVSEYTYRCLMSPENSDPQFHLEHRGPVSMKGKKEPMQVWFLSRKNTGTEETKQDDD
# EXPERIMENT: sGC cellular activator assay (cGMP, HTRF), in the presence and absence of 50% human serum
# SETTINGS: CHO cells stably expressing human sGC alpha 1/beta 1, preincubated with 40 microM ODQ; cGMP by HTRF; Table 2 does not state whether with or without 50% human serum
State the answer as a number, implicitly in nM.

> print(dat)
                                   molecule  attribute.measured  unit.spec  measured.result
1  CO[C@H]1CN(c2cccc(-c3cccc(C)c3OCc3cc(C)c4c(c3)CCN(C3CCOCC3)C4)n2)CC[C@@H]1C(=O)O [Compound 298]                EC50         nM              578
2  Cc1cccc(-c2csc(N3C[C@@H]4C[C@]4(C(=O)O)C3)n2)c1OCc1ccc2c(c1C)CCN(C1CCOCC1)CC2 [Compound 144]                EC50         nM               10
3  COC[C@H]1N(c2cccc(-c3cccc(C)c3OCc3ccc4c(c3)CCN(C3CCOC3)C4)n2)C[C@@H]2C[C@@]21C(=O)O (mixture of isomers) [Compound 45]                EC50         nM               76
4  Cc1ccc(OCc2ccc3c(c2C)CCN(CC2COCCO2)C3)c(-c2csc(N3CC[C@@]4(C(=O)O)C[C@H]4C3)n2)c1 (stereo partly shown) [Compound 117]                EC50         nM                2
5  CO[C@H]1CN(c2cccc(-c3cccc(C)c3OCc3ccc4c(c3C)CCN(C3COC3)C4)n2)CC[C@H]1C(=O)O [Compound 66]                EC50         nM               20
6  CCO[C@@H]1CN(c2nc(-c3cccc(C)c3OCc3cc(F)c4c(c3)CCN(C3CCOCC3)C4)cs2)CC[C@@H]1C(=O)O [Compound 238]                EC50         nM                4

Exercise: Read off the recorded EC50 for CO[C@@H]1CN(c2cccc(-c3cc(C)ccc3OCc3cc(C)c4c(c3)CCN(C3CCOCC3)C4)n2)CC[C@@H]1C(=O)O [Compound 76]
Solution: 25

Exercise: Tell us which EC50 value is on record for Cc1cc(COc2c(C)cccc2-c2csc(N3C[C@@H]4C[C@]4(C(=O)O)C3)n2)cc2c1CN(C1COC1)CC2 [Compound 139]
Solution: 7

Exercise: Consider the molecule Cc1ccc(OCc2ccc3c(c2C)CCN(C2CCCOC2)CC3)c(-c2csc(N3CC[C@@]4(C(=O)O)C[C@H]4C3)n2)c1 (stereo partly shown) [Compound 134] . State its measured EC50.
Solution: 11

Exercise: Quote EC50 reported for Cc1cc(COc2c(C)cccc2-c2cccc(N3C[C@@H]4C[C@]4(C(=O)O)C3)n2)cc2c1CN(C1COC1)CC2 [Compound 23] please.
Solution: 6

Exercise: Output measured EC50 for this item: COC[C@H]1N(c2cccc(-c3cccc(C)c3OCc3cc(C)c4c(c3)CCN(C3CCOCC3)C4)n2)C[C@@H]2C[C@@]21C(=O)O [Compound 48]
Solution: 18

Exercise: Please supply the value of reported EC50 for the item Cc1ccc(OCc2ccc3c(c2)CCN(C2CCOCC2)C3)c(-c2csc(N3C[C@@H]4C[C@]4(C(=O)O)C3)n2)c1 [Compound 145]
Solution: 162

Exercise: Answer with the recorded EC50 of Cc1cc(COc2c(C)cccc2-c2csc(N3CC[C@@]4(C(=O)O)C[C@H]4C3)n2)c(C)c2c1CN(CC1COCCO1)CC2 (stereo partly shown) [Compound 98] only.
Solution: 1

Exercise: Report EC50, nothing else, for this molecule: CO[C@@H]1CN(c2nc(-c3cccc(Cl)c3OCc3ccc4c(c3C)CCN(C3CCOCC3)C4)cs2)CC[C@@H]1C(=O)O [Compound 208]
Solution: 16

Exercise: Retrieve EC50 measured for CCO[C@@H]1CN(c2cccc(-c3cccc(C)c3OCc3ccc4c(c3C)CCN(C3CCOCC3)CC4)n2)CC[C@@H]1C(=O)O [Compound 239] and print it.
Solution: 5

Exercise: Answer with reported EC50 of Cc1cc(COc2ccccc2-c2cccc(N3CC[C@@]4(C(=O)O)C[C@H]4C3)n2)cc2c1CN(C1CCOCC1)CC2 [Compound 12]
Solution: 12

Exercise: Tell us which EC50 value is on record for Cc1cccc(-c2cccc(N3C[C@@H]4C[C@]4(C(=O)O)C3)n2)c1OCc1ccc2c(c1)CCN(C1CCOCC1)CC2 [Compound 31]
Solution: 7

Exercise: Return value of EC50 for input CO[C@@H]1CN(c2cccc(-c3cccc(Cl)c3OCc3cc(C)c4c(c3)CCN(C3CCOCC3)C4)n2)CC[C@@H]1C(=O)O [Compound 255] , no commentary.
Solution: 7
